Value source: patent US20250332300A1

# measurement-target: mouse HER2 (23-653) (Mus musculus, UniProt P70424)
# test-summary: TR-FRET competition assay for peptide potency, mouse HER2
# Type: binding
# Parameters: mouse HER2 (23-653) using a Cy5 labeled peptide as a probe; made in house; host or cells: mammalian cells
# condition-context: TR-FRET competition with Cy5 labeled peptide probe, 0.1 nM mouse HER2, 24 h incubation; read-out: moHER2 TR-FRET IC50
pIC50: −log10 of the molar value. Starred links: 1 amine or outer side, 2 acyl side, 3 side chain; linkers in the order of their positions; H or OH if unused. Positions of bridges follow the written chain, without caps; N, C: chain ends. Non-standard residues stand in square brackets, D forms with d. Residues, ends and D or L forms follow the SMILES beside them. Trp(5-OH) = N[C@@H](Cc1c[nH]c2ccc(O)cc12)C(=O)O; NMePhe(4-F) = CN[C@@H](Cc1ccc(F)cc1)C(=O)O; isoSer(2S) = O=C([C@@H](O)CN[*:1])[*:2]; NMehPhe = CN[C@@H](CCc1ccccc1)C(=O)O; NMeAoc(2) = CCCCCC[C@H](NC)C(=O)O; NMeE = CN[C@@H](CCC(=O)O)C(=O)O; Aad = N[C@@H](CCCC(=O)O)C(=O)O; Gly(cPr) = N[C@H](C(=O)O)C1CC1; NMeK = CN[C@@H](CCCCN)C(=O)O; NMeDap = CN[C@@H](CN)C(=O)O
Given measured pIC50, output 1.0 if it is greater than or equal to 8 and 0.0 if not.

molecule | group
CC(=O)NCCCC[C@H]1C(=O)N[C@@H](Cc2c[nH]c3ccc(O)cc23)C(=O)N[C@@H](Cc2c[nH]c3ccccc23)C(=O)N[C@@H](C2CC2)C(=O)N(C)[C@H](C(=O)N(C)[C@@H](Cc2ccc(F)cc2)C(=O)N[C@@H](CCCCNC(=O)c2ccc([N+](C)(C)C)nc2)C(N)=O)CNC(=O)CCC[C@H](NC(C)=O)C(=O)N[C@@H](Cc2ccc(O)cc2)C(=O)N[C@@H](CO)C(=O)N(C)[C@@H](CCc2ccccc2)C(=O)N1C [Example F2] | 1.0
CCCCCC[C@H]1C(=O)N(C)[C@@H](CCCCNC(C)=O)C(=O)N[C@@H](Cc2c[nH]c3ccc(O)cc23)C(=O)N[C@@H](Cc2c[nH]c3ccccc23)C(=O)N[C@@H](C2CC2)C(=O)N(C)[C@H](C(=O)N(C)[C@@H](Cc2ccc(F)cc2)C(N)=O)CNC(=O)CCC[C@H](NC(C)=O)C(=O)N[C@@H](Cc2ccc(O)cc2)C(=O)N[C@@H](CO)C(=O)N1C [Example A20] (Ac-[Aad]YS[NMeAoc(2)][NMeK](Ac)[Trp(5-OH)]W[Gly(cPr)][NMeDap][NMePhe(4-F)]-NH2; lactam 1-9) | 1.0
CC(=O)NCCCC[C@H]1C(=O)N[C@@H](Cc2c[nH]c3ccc(O)cc23)C(=O)N[C@@H](Cc2c[nH]c3ccccc23)C(=O)N[C@@H](C2CC2)C(=O)N(C)[C@H](C(=O)N(C)[C@@H](Cc2ccc(F)cc2)C(N)=O)CCC(=O)NC[C@H](O)C(=O)N[C@@H](Cc2ccc(O)cc2)C(=O)N[C@@H](CO)C(=O)N(C)[C@@H](CCc2ccccc2)C(=O)N1C [Example A23] ([isoSer(2S)]YS[NMehPhe][NMeK](Ac)[Trp(5-OH)]W[Gly(cPr)][NMeE][NMePhe(4-F)]-NH2; lactam N-9) | 1.0
CN1C(=O)[C@H](CO)NC(=O)[C@H](Cc2ccc(O)cc2)NC(=O)[C@@H](N)CCC(=O)NC[C@@H](C(=O)N(C)[C@@H](Cc2ccc(F)cc2)C(N)=O)N(C)C(=O)[C@H](C2CC2)NC(=O)[C@H](Cc2c[nH]c3ccccc23)NC(=O)[C@H](Cc2c[nH]c3ccc(O)cc23)NC(=O)[C@H](CO)N(C)C(=O)[C@@H]1CCc1ccccc1 [Example A35] | 0.0
